Target Entity: APOL1
Settings: ASO, A431, 2 µM
After the bases stand the sugars from the 5' end (letter, count) and the backbone: PS all phosphorothioate, else s phosphorothioate and o phosphodiester by linkage. Methylation of C is not given here. e = 2'-O-(2-methoxyethyl) (MOE); k = constrained ethyl (cEt); d = 2'-deoxy (DNA)
Respond with met for target mRNA inhibition values of 90% and above, not met for values below.

Take a look at these entries with their results.
# Sequence Content, Class Name
rows = [
    ("GTTATATTTGATCCTC (sugars kkddddkekekddddd, PS)", "not met"),
    ("AGTATTGCCAGCTAAG (sugars k2 d4 e3 k2 d5, PS)", "not met"),
    ("AGTATTGTTTTTGTGG (sugars kkddddkdkdkddddd, PS)", "not met"),
    ("TTCAGAATTTCCACTA (sugars kkddddkekekkdddd, PS)", "not met"),
    ("GTATTTCTTGATGTGG (sugars kkdddddkekeddddd, PS)", "met"),
]

I'd appreciate it if you could say whether TTTGTAAGTGCAACCA (sugars kddddkekekeddddd, PS) has target mRNA inhibition at least equal to 90%.
met
